# Target under test: T1, recombinant DR3 (DR3-His tag) (human, UniProt Q93038 25-199)
# T1 chain: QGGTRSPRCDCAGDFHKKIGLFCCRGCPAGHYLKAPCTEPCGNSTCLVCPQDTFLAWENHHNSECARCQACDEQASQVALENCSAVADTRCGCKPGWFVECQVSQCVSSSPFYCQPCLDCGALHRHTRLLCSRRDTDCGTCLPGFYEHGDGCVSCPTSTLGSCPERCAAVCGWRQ
# Experimental details: SPR
Parameter: Kd (nM)
Just the number please, in nM, no unit attached.

Examples from the recorded data:
# Binder, Unit spec, Kd
measured = [
    ("TL1A (tumor necrosis factor-like ligand 1A), His tag (ligand) LKGQEFAPSHQQVYAPLRADGDKPRAHLTVVRQTPTQHFKNQFPALHWEHELGLAFTKNRMNYTNKFLLIPESGDYFIYSQVTFRGMTSECSEIRQAGRPNKPDSITVVITKVTDSYPEPTQLLMGTKSVCEVGSNWFQPIYLGAMFSLQEGDKLMVNVSDISLVDYTKEDKTFFGAFLL", "nM", 426),
    ("anti-DR3 2-10 monoclonal antibody (antibody, V domains shown) VH: QVQLVQSGAEVKKPGASVKVSCKASGYTFTSYGISWVRQAPGQGLEWMGWISAYNGNTNYAQKLQGRVTMTTDTSTSTAYMELRSLRSDDTAVYYCASGPDYGMLDYWGQGTLVTVS VL: EIVMTQSPSSLPASVGDRVTITCQASQDISNYLNWYQQKPGKAPKLLIYDASNLETGVPSRFSGSGSGTDFTFTISSPQPEDIATYYCQQYDNLPLTFGGGTKVEIK", "nM", 0.693),
]

Q: Report Kd for anti-DR3 6-15 monoclonal antibody (antibody, V domains shown) VH: QVQLVQSGGGLVQPGGSLRLSCAASGFTFSSYSMNWVRQAPGKGLEWVSYISSSSSTIYYADSVKGRFTISRDNAKNSLYLQMNSLRAEDTAVYYCARWDGYCSGGSCYSGMDYWGQGTLVTVS VL: DIEMTQSPSSLSASVGDKVTITCQASQDISNYLNWYQQKPGKAPKLLIYDASNLETGVPSRFSGSGSGTDSTFTISSLQPEDIATYYCQQYDNLPLTFGGGTKVEIK
A: 82.4
